The values you see were collected from patent US20250195487A1.

- Assay Summary: Hygroscopic behavior test by dynamic vapor sorption (DVS)
- Assay type: physicochemical
- Condition Parameters: relative humidity 20.0 %, 25° C., DVS
Counter-ions that a name gives are not always drawn.
Observable: hygroscopic weight gain (%)

Worked examples follow.
| Molecule | Unit Symbol | Experimental Value |
| --- | --- | --- |
| Cc1nc(NC(=O)N2CCC(C)(C)C2=O)ccc1Oc1ccnc(-c2cnn(C)c2)c1 [Phosphate crystalline form I] | % | 1.86 |
| Cc1nc(NC(=O)N2CCC(C)(C)C2=O)ccc1Oc1ccnc(-c2cnn(C)c2)c1 [Hydrochloride crystalline form I] | % | 0.24 |

1 = Cc1nc(NC(=O)N2CCC(C)(C)C2=O)ccc1Oc1ccnc(-c2cnn(C)c2)c1 [Mesylate crystalline form II]
2 = Cc1nc(NC(=O)N2CCC(C)(C)C2=O)ccc1Oc1ccnc(-c2cnn(C)c2)c1 [Tartrate crystalline form I]
Between item 1 and item 2 , which reported hygroscopic weight gain is smaller? Lab note: record the label of whichever item you select. 1
